Every entry's value here was drawn from patent US10273227B2.

# Target Desc: Ba/F3-D816H (KIT exon11 deletion (557-558) and secondary mutation D816H) (Homo sapiens, UniProt P10721, D816H/DEL557-558)
# Construct: expressed in transfected cells; host or cells: Ba/F3 cells, lentiviral transduction (pLVX-IRES Puro)
# Sequence (P10721 with tags, fused parts or gaps DEL557-558/D816H): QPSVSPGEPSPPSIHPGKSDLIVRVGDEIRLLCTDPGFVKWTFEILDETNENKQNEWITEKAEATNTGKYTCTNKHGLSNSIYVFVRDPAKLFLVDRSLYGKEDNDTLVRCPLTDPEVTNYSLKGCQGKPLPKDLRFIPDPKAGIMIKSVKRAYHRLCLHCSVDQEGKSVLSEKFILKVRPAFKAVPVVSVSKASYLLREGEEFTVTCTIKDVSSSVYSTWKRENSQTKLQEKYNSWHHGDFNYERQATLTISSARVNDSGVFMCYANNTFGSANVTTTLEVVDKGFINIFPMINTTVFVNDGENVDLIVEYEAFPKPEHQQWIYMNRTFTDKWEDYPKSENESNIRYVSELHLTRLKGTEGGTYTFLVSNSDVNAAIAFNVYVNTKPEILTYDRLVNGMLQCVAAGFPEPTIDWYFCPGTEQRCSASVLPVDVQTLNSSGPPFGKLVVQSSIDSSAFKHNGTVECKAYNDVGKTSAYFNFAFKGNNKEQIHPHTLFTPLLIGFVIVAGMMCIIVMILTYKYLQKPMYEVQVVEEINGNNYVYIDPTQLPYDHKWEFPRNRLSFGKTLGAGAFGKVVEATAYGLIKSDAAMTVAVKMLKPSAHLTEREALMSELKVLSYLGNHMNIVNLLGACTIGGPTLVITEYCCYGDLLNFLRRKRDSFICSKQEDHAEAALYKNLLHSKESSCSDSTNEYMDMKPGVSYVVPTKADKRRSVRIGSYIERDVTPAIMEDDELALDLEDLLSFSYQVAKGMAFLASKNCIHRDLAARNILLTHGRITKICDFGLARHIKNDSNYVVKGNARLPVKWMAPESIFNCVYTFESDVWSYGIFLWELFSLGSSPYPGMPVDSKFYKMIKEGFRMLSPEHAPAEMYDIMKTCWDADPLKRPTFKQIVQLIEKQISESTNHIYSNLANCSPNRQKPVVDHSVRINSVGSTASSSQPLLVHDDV
# Assay Procedure: MTS viability assay, Ba/F3 expressing KIT exon11 deletion (557-558) and D816H
# Assay type: cell-based
# Condition Notes: 72 h incubation, top concentration 10 uM
Rule: measured Ba/F3-D816H GI50 below 60 nM gets 1.0; anything equal to or greater than 60 nM gets 0.0.

Query: Threshold test, Ba/F3-D816H GI50 < 60 nM: CCOc1cc(OC)cc2ncnc(Nc3ccc(NC(=O)Cn4cc(C(C)C)nn4)cc3)c12
Result: 0.0

Query: Follow-up entry: COc1cc(OC)c2c(Nc3ccc(NC(=O)Cn4cc(C(C)C)nn4)cc3F)ncnc2c1
Result: 0.0

Query: Try this molecule too: CCOc1cc(OC2COC2)cc2ncnc(Nc3ccc(NC(=O)Cn4cc(C(C)C)nn4)cc3)c12
Result: 0.0

Query: Same read-out for CCOc1cc(OC2CCOCC2)cc2ncnc(Nc3ccc(NC(=O)Cn4cc(C(C)C)nn4)cc3)c12 ?
Result: 0.0

Query: Ok, now COc1cc(OC)c2c(Nc3ccc(NC(=O)Cn4cc(C(C)C)nn4)cc3)ncnc2c1
Result: 1.0

Query: Please give the result for COCCOc1cc(F)c2c(Nc3ccc(NC(=O)Cn4cc(C(C)C)nn4)cc3)ncnc2c1 too.
Result: 1.0

Query: Would you kindly repeat that for COc1cc2ncnc(Nc3ccc(NC(=O)Cn4cc(C(C)C)nn4)cc3)c2c(F)c1OC ?
Result: 1.0

Query: Entry to check: CCOc1cc(OCCOC)cc2ncnc(Nc3ccc(NC(=O)Cn4cc(C(C)C)nn4)cc3)c12
Result: 1.0

Query: Entry COCCOc1cc(OC)c2c(Nc3ccc(NC(=O)Cn4cc(C(C)C)nn4)cc3)ncnc2c1 please
Result: 1.0

Query: Would you mind doing COc1cc2ncnc(Nc3ccc(NC(=O)Cn4cc(C(C)C)nn4)cc3)c2c(OC)c1OC as well?
Result: 1.0

Query: What about CCOc1cc(OCC)c2c(Nc3ccc(NC(=O)Cn4cc(C(C)C)nn4)cc3)ncnc2c1 ?
Result: 1.0

Query: One more molecule: COc1cc(F)c2c(Nc3ccc(NC(=O)Cn4cc(C(C)C)nn4)cc3)ncnc2c1
Result: 1.0

Query: How about this molecule: COc1cc(OC(C)C)cc2ncnc(Nc3ccc(NC(=O)Cn4cc(C(C)C)nn4)cc3)c12
Result: 1.0

Query: Same again, this time with COc1cc(OC2COC2)cc2ncnc(Nc3ccc(NC(=O)Cn4cc(C(C)C)nn4)cc3)c12
Result: 0.0

Query: How about this molecule: CCOc1cc(OCCN(C)C)cc2ncnc(Nc3ccc(NC(=O)Cn4cc(C(C)C)nn4)cc3)c12
Result: 0.0

Query: Repeat for the following molecule: COc1cc(OC2CCOCC2)cc2ncnc(Nc3ccc(NC(=O)Cn4cc(C(C)C)nn4)cc3)c12
Result: 0.0

Query: Do the same for CCOc1cc(OC)c2c(Nc3ccc(NC(=O)Cn4cc(C(C)C)nn4)cc3)ncnc2c1 please
Result: 1.0

Query: What would you report for COc1cc(OCCN(C)C)cc2ncnc(Nc3ccc(NC(=O)Cn4cc(C(C)C)nn4)cc3)c12 ?
Result: 0.0
